- Tested on: Clostridium diaphorase
- EXPERIMENT_NOTES: Fluorescent NADH detection assay, Clostridium diaphorase
- Type: biochemical
- CONDITION_LABEL: 110 min; 10 uM NADH
- Protocol: Each fluorescent substrate (PBI-4412, 4413, 4440, and 4441) was incubated at 920 μM with 0 μM or 10 μM NADH (Sigma) or a titration of NADH (Table 8) and 1 u/ml rat diaphorase (Sigma) or 1 u/ml Clostridium diaphorase (Sigma) in a volume of 100 μl in 50 mM Tris pH 7.5. […] Fluorescence was monitored over the course of two hours at excitation and emission wavelengths of 485 and 527, respectively, using a fluorescence plate reader. […]
MEASUREMENT_LABEL: Fluorescence time course, Clostridium (FLUs)
Quick note: give the figure in FLUs, leave out the unit.

COMPOUND: CC1=CC(=O)C(C)=C(C(C)(C)CC(=O)N(C)CCN(C)C(=O)Oc2ccc3c(c2)Oc2cc(O)ccc2C32OC(=O)c3ccccc32)C1=O (stereo not shown) [PBI 4412]
UNITS_TEXT: FLUs
Fluorescence time course, Clostridium: 124460
//
COMPOUND: CC1=C(C)C(=O)C(C(C)(C)CC(=O)N(C)CCN(C)C(=O)Oc2ccc3c(c2)Oc2cc(OC(=O)N(C)CCN(C)C(=O)CC(C)(C)C4=C(C)C(=O)C(C)=C(C)C4=O)ccc2C32OC(=O)c3ccccc32)=C(C)C1=O [PBI 4441]
UNITS_TEXT: FLUs
Fluorescence time course, Clostridium: 2515
//
COMPOUND: CC1=CC(=O)C(C)=C(C(C)(C)CC(=O)N(C)CCN(C)C(=O)Oc2ccc3c(c2)Oc2cc(OC(=O)N(C)CCN(C)C(=O)CC(C)(C)C4=C(C)C(=O)C=C(C)C4=O)ccc2C32OC(=O)c3ccccc32)C1=O [PBI 4413]
UNITS_TEXT: FLUs
Fluorescence time course, Clostridium: 3820

Exam item: # get_value(readout='Fluorescence time course, Clostridium', item= CC1=C(C)C(=O)C(C(C)(C)CC(=O)N(C)CCN(C)C(=O)Oc2ccc3c(c2)Oc2cc(O)ccc2C32OC(=O)c3ccccc32)=C(C)C1=O (stereo not shown) [PBI 4440] )
Marked response: 43005
